target: NL4.3 env (HIV-1 groupM); test: cell-based or functional assay
reported.property: IC50, HIV-1 infection of PBMC (p24, day 12) (nM)

* XNLHFCQLRCKSLGLLGRCAXTFCACV (not fully specified; N-terminal thiopropionic acid (TPA) at position 1; (D)Pro at 21; C-terminal amide; Lys11 carries a mercapto group ligated to a maleimido group of a polylysine construct with 100 Å PEGylated linkers, tetramer of CD4M48-SH on a polylysine construct) [CD4M48T100] | 1.3
* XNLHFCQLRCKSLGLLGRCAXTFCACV (not fully specified; N-terminal thiopropionic acid (TPA) at position 1; (D)Pro at 21; C-terminal amide, optimized mini-protein, Phe at 23; unlabelled monomer; also called B4T) [CD4M48] | 0.44
